method_notes: Evaluation of pharmacokinetic parameters for triamcinolone acetonide following intravenous dosing of triamcinolone acetonide phosphate ester in adults.
Format: ADME, organism-based
recorded_conditions: human, in vivo, dosed compound id 470, dosed compound name TRIAMCINOLONE ACETONIDE PHOSPHATE ESTER, tissue Plasma
measure: half-life (h)
Just the number in h, nothing appended.

Ask: Name the recorded half-life for CC1(C)O[C@@H]2C[C@H]3[C@@H]4CCC5=CC(=O)C=C[C@]5(C)[C@@]4(F)[C@@H](O)C[C@]3(C)[C@]2(C(=O)CO)O1 [TRIAMCINOLONE ACETONIDE] .
Reply: 1.47
